Cited source: paper PMC12652730

tested on: VvelCSP4; test: Fluorescence competitive binding assay (1-NPN probe) with VvelCSP4; parameters: species or system Vespa velutina auraria; conditions: VvelCSP4, chemical 0.5 μM
experimental readout: Raw fluorescence intensity

CCCCCCCCCCCCCCCCCCCCCCCCCC [Hexacosane] ... 213.35
CCCCCCCCCCCCCCCCCCCCCCCCCCCC [Octacosane] ... 227.35
CCCCCCCC/C=C\CCCCCCCCCCCCC [Z-9-Tricosene] ... 182.16
CCCCCCCCCCCCCCCCCCCCCCCC [Tetracosane] ... 216.50
CCCCCCCCCCCCCCCCCCCCCCCCC [Pentacosane] ... 211.45
CCCCCCCCCCCCCCCCCCCCCCCCCCC [Heptacosane] ... 218.17
CCCCCCCCCCCCCCCCCCCCCC [Docosane] ... 205.93
CCCCCCCCCCCCCCCCCCCCCCCCCCCCC [Nonacosane] ... 212.97
CCCCCCCCCCCCCCCCCCCC [Eicosane] ... 192.14
CCCCCCCCCCCCCCCCCCCCCCC [Tricosane] ... 207.46
CCCCCCCCCCCCCCCCCCCCC [Heneicosane] ... 252.45
CCCCCCCCCCCCCCCCCCC [Nanadecane] ... 238.31
CCCCCCCCCCCCCCCCCCCCCCCCCCCCCC [Triacontane] ... 216.07

====

tested on: VvelCSP4; test: Fluorescence competitive binding assay (1-NPN probe) with VvelCSP4; set-up: species or system Vespa velutina auraria; conditions: VvelCSP4, chemical 6 μM
experimental readout: Raw fluorescence intensity

CCCCCCCCCCCCCCCCCCCCCCCCCC [Hexacosane] ... 147.61
CCCCCCCCCCCCCCCCCCCCCCCCCCCC [Octacosane] ... 174.55
CCCCCCCCCCCCCCCCCCCCCCCC [Tetracosane] ... 153.54
CCCCCCCCCCCCCCCCCCCCC [Heneicosane] ... 161.57
CCCCCCCCCCCCCCCCCCCCCCCCC [Pentacosane] ... 119.91
CCCCCCCCCCCCCCCCCCCCCCCCCCCCCC [Triacontane] ... 162.42
CCCCCCCCCCCCCCCCCCCCCCCCCCCCC [Nonacosane] ... 151.46

====

system: VvelCSP4; assay: Fluorescence competitive binding assay (1-NPN probe) with VvelCSP4; set-up: species or system Vespa velutina auraria; settings: VvelCSP4, chemical 4 μM
experimental readout: Raw fluorescence intensity

CCCCCCCCCCCCCCCCCCC ... 167.28
CCCCCCCC/C=C\CCCCCCCCCCCCC ... 109.71
CCCCCCCCCCCCCCCCCCCCCCCCCCCCCC ... 171.56
CCCCCCCCCCCCCCCCCCCCCCCCCCC ... 154.91
CCCCCCCCCCCCCCCCCCCCCCCCCCCC ... 182.58
CCCCCCCCCCCCCCCCCCCCC ... 178.34
CCCCCCCCCCCCCCCCCCCCCCC ... 134.98

====

molecular target: UniProtKB A0A384ZVP9; experiment: Fluorescence competitive binding assay (1-NPN probe) with VvelCSP1; conditions: VvelCSP1, chemical 1 μM
experimental readout: Raw fluorescence intensity

CCCCCCCCCCCCCCCCCCCCC ... 168.28
CCCCCCCCCCCCCCCCCCCCCC ... 231.89
CCCCCCCCCCCCCCCCCCCCCCCC ... 200.88
CCCCCCCCCCCCCCCCCCCCCCCCCCCC ... 192.40
CCCCCCCCCCCCCCCCCCCC ... 234.09
CCCCCCCCCCCCCCCCCCCCCCCCCC ... 171.76
CCCCCCCCCCCCCCCCCCC ... 209.38

====

biological target: UniProt A0A384ZVP9; test: Fluorescence competitive binding assay (1-NPN probe) with VvelCSP1; details: VvelCSP1, chemical 6 μM
experimental readout: Raw fluorescence intensity

CCCCCCCCCCCCCCCCCCCCCCCCCCCC ... 135.22

I. CCCCCCCC/C=C\CCCCCCCCCCCCC
II. CCCCCCCCCCCCCCCCCCCCCCC
Req: Just tell me: smaller Raw fluorescence intensity value, I or II ? Selection: enter the item's label.
Resp: II

1. CCCCCCCCCCCCCCCCCCC
2. CCCCCCCCCCCCCCCCCCCCCCCCCC
Req: Hi team, can someone confirm which has the larger Raw fluorescence intensity: 1 or 2 ? Thanks. API: response body contains the label of the selected item.
Resp: 1

====

molecular target: VvelCSP4; assay: Fluorescence competitive binding assay (1-NPN probe) with VvelCSP4; parameters: species or system Vespa velutina auraria; details: VvelCSP4 2 μM, 1-NPN 1 μM, Tris-HCl pH 7.5, single experiment; read-out: IC50 (ligand concentration displacing 50% of the fluorescence intensity of the CSPs/NPN complex)
experimental readout: IC50 (µM)

For orientation, consider the following solved cases.
CCCCCCCCCCCCCCCCCCC ... 10.4
CCCCCCCCCCCCCCCCCCCCCCC ... 5.09
CCCCCCCCCCCCCCCCCCCCCC ... 3.68
CCCCCCCCCCCCCCCCCCCCCCCCCCCCC ... 20.4

a. CCCCCCCC/C=C\CCCCCCCCCCCCC
b. CCCCCCCCCCCCCCCCCCCCCCCCCCC
Req: # return whichever of a and b has the smaller IC50 I would appreciate it if you answered with the label of your choice.
Resp: a

====

system: VvelCSP4; test: Fluorescence competitive binding assay (1-NPN probe) with VvelCSP4; set-up: species or system Vespa velutina auraria; details: VvelCSP4, chemical 6 μM
experimental readout: Raw fluorescence intensity

Worked set:
CCCCCCCCCCCCCCCCCCCCCCCCCCC [Heptacosane] ... 140.68
CCCCCCCCCCCCCCCCCCCC [Eicosane] ... 139.00
CCCCCCCCCCCCCCCCCCCCCCC [Tricosane] ... 119.90

a. CCCCCCCC/C=C\CCCCCCCCCCCCC [Z-9-Tricosene]
b. CCCCCCCCCCCCCCCCCCC [Nanadecane]
Req: Of a and b , which shows the smaller Raw fluorescence intensity value? Select an item and report its label.
Resp: a
(a: 96.72, b: 153.91)

====

Test system: VvelCSP4
Experiment: Fluorescence competitive binding assay (1-NPN probe) with VvelCSP4
Parameters: species or system Vespa velutina auraria
Conditions: VvelCSP4, chemical 2 μM
Method: Fluorescence competitive binding assays were employed to characterize the interactions between VvelCSPs and 13 volatiles shared between the elaiosomes of S. tuberosa and the cuticular hydrocarbons of honeybees. […] Binding parameters for CSP-NPN were determined by titration: 2 mL of CSP solution (2 μM) was titrated with 1-NPN (final concentrations: 2−24 μM). Maximum fluorescence intensity was recorded, and the dissociation constant was calculated. […]
experimental readout: Raw fluorescence intensity

CCCCCCCCCCCCCCCCCCCC [Eicosane] ... 164.23
CCCCCCCCCCCCCCCCCCCCC [Heneicosane] ... 209.89
CCCCCCCCCCCCCCCCCCCCCCCCCCCCC [Nonacosane] ... 179.08
CCCCCCCCCCCCCCCCCCCCCCCCC [Pentacosane] ... 160.44
CCCCCCCCCCCCCCCCCCCCCCCC [Tetracosane] ... 178.28
CCCCCCCCCCCCCCCCCCCCCCCCCCC [Heptacosane] ... 172.10
CCCCCCCCCCCCCCCCCCCCCC [Docosane] ... 159.86
CCCCCCCC/C=C\CCCCCCCCCCCCC [Z-9-Tricosene] ... 132.92
CCCCCCCCCCCCCCCCCCCCCCCCCCCC [Octacosane] ... 194.19
CCCCCCCCCCCCCCCCCCCCCCCCCCCCCC [Triacontane] ... 183.85
CCCCCCCCCCCCCCCCCCC [Nanadecane] ... 185.38
CCCCCCCCCCCCCCCCCCCCCCC [Tricosane] ... 153.67
CCCCCCCCCCCCCCCCCCCCCCCCCC [Hexacosane] ... 177.42

====

target: VvelCSP1 (Vespa velutina auraria); experiment: Fluorescence competitive binding assay (1-NPN probe) with VvelCSP1; conditions: VvelCSP1; read-out: Binding affinity class (by Ki)
Sequence (A0A384ZVP9 entry or part of it): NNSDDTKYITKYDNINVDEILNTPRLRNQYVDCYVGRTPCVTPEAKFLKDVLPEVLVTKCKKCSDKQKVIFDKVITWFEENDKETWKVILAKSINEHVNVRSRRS
pKi: −log10 of the molar value.
experimental readout: pKi

Req: # pKi lookup, item CCCCCCCCCCCCCCCCCCC
Resp: < 5.00

====

system: VvelCSP4; experiment: Fluorescence competitive binding assay (1-NPN probe) with VvelCSP4; set-up: species or system Vespa velutina auraria; details: VvelCSP4, chemical 1 μM
experimental readout: Raw fluorescence intensity

CCCCCCCCCCCCCCCCCCC ... 207.32
CCCCCCCCCCCCCCCCCCCCCCCCCC ... 194.71
CCCCCCCC/C=C\CCCCCCCCCCCCC ... 152.13
CCCCCCCCCCCCCCCCCCCCCCC ... 177.45
CCCCCCCCCCCCCCCCCCCCCC ... 179.89
CCCCCCCCCCCCCCCCCCCCCCCCCCCC ... 213.99
CCCCCCCCCCCCCCCCCCCCCCCCCCCCCC ... 200.62
